- assay_summary: Steady-state plasma pharmacokinetics, day 28 of course 1
- Type: in vivo, human
- particulars: human, plasma, oral
measurement_type: Tmax

So what's the measured Tmax for this one? COc1cc2c(Oc3ccc4[nH]c(C)cc4c3F)ncnc2cc1OCCCN1CCCC1 [cediranib, Cediranib]
2 to 6 h

* * *

- assay_summary: Steady-state plasma pharmacokinetics, day 28 of course 1
- Format: in vivo, human
- particulars: human, plasma, oral, 40 mg/m2, steady-state AUC0—tlast, 40mg/m^2 QD, n=1
measurement_type: AUC (ng·h/mL)
Write it as a number; the unit ng·h/mL goes unstated.

Which AUC reading was recorded for the compound `COc1cc2c(Oc3ccc4[nH]c(C)cc4c3F)ncnc2cc1OCCCN1CCCC1` ?
770

* * *

- assay_summary: Steady-state plasma pharmacokinetics, day 28 of course 1
- Assay type: in vivo, human
- particulars: human, plasma, oral, 32 mg/m2, steady-state AUC0—tlast, 32mg/m^2 QD, n=2
measurement_type: AUC (ng·h/mL)
Give the value in ng·h/mL but do not write ng·h/mL after it.

Dear colleague, I am looking for the recorded AUC of the following molecule: `COc1cc2c(Oc3ccc4[nH]c(C)cc4c3F)ncnc2cc1OCCCN1CCCC1`
892
